experiment: Acute toxicity in male CF 1 mice; settings: mouse, in vivo, ip; I.P.
endpoint: LD50
Please format your answer as a value with the unit trailing.

Challenge: So what does the record say about LD50 for CNc1ccc(C(=O)CC(O)CCC(C)C2OC(=O)CC(O)CC(O)CC(O)CC(O)CC(O)CC(O)CC3(O)CC(O)C(C(=O)O)C(CC(OC4OC(C)C(O)C(N)C4O)C=CC=CC=CC=CC=CC=CC=CC2C)O3)cc1 (stereo not shown) [Antibiotic 67-121A] ?
Response given: 2.4 mg/kg

====

test: physchem; settings: 66% aqueous dimethylformamide, pka (COO^-)
endpoint: pKa
One number for each entry.

- molecule: "CC1C=CC=CC=CC=CC=CC=CC=CC(OC2OC(C)C(O)C(N)C2O)CC2OC(O)(CC(O)CC(O)CC(O)CC(O)CC(O)CC(O)CC(=O)OC1C(C)CCC(O)CC(=O)c1ccc(N)cc1)CC(O)C2C(=O)O (centres unmarked) [Antibiotic 67-121B]"
  pKa: 6.3

Challenge: So what does the record say about pKa for CNc1ccc(C(=O)CC(O)CCC(C)C2OC(=O)CC(O)CC(O)CC(O)CC(O)CC(O)CC(O)CC3(O)CC(O)C(C(=O)O)C(CC(OC4OC(C)C(OC5OC(CO)C(O)C(O)C5O)C(N)C4O)C=CC=CC=CC=CC=CC=CC=CC2C)O3)cc1 (centres unmarked) [Antibiotic 67-121C] ?
Response given: 6

Every entry's value here was drawn from patent US4359462A.
